- targetDesc: T1, human C5 R885C-mmh (human, UniProt P01031 19-1676)
- T1 construct: also called human C5 variant R885C
- assaySummary: SPR, mAb captured via anti-hFc, 25C
Each record here notes measured koff.
measurementType: koff

binder="H4H12171P (antibody, human IgG4, V domains shown, Human IgG4 Fc with S108P hinge mutation (H4H)) VH: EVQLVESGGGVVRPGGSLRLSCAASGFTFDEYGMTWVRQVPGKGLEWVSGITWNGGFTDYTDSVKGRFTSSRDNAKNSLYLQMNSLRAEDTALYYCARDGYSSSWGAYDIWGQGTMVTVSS VL: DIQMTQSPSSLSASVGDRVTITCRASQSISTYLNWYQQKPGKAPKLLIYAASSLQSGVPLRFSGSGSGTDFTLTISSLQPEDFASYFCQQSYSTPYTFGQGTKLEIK" experimentalresult="0.000139 s⁻¹"
binder="H4H12161P (antibody, human IgG4, V domains shown, Human IgG4 Fc with S108P hinge mutation (H4H)) VH: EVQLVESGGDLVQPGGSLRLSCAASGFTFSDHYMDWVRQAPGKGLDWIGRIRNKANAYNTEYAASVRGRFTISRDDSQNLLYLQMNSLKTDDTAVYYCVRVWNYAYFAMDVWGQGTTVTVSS VL: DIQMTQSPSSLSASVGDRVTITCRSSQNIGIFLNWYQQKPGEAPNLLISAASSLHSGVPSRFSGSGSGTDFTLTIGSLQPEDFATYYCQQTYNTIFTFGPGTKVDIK" experimentalresult="8.71e-05 s⁻¹"
binder="H4H12163P (antibody, human IgG4, V domains shown, Human IgG4 Fc with S108P hinge mutation (H4H)) VH: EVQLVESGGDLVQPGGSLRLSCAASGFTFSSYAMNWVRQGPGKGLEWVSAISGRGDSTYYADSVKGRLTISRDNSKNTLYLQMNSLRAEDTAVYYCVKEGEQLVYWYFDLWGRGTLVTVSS VL: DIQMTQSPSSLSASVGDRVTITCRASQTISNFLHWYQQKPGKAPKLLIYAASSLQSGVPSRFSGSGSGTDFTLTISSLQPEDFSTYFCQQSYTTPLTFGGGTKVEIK" experimentalresult="0.000432 s⁻¹"
